test system: U251 CNS; test: NCI-60 one-dose screen, 48 h; details: 10 µM unless noted
About 83,000 compounds went through this panel and 20% of them were active in at least one assay; those are over-represented in the sample as a whole. Active and inactive are the calls of the source. Rule for the calls: active = growth percent below 10; inactive = the rest.
Classes used: active, inactive

compound=COc1cc(CNC(=O)CCSc2nc3ccccc3c(=O)n2Cc2cc(OC)c(OC)c(OC)c2)cc(OC)c1OC target_desc="U251 CNS" label=inactive
compound="CN(C)c1ccc(C2CC(c3ccccc3)=NN2/C=C2\\SC(=O)NC2=O)cc1 (stereo not given)" target_desc="U251 CNS" label=inactive
compound=COc1cc(OC)c(C(=O)/C=C/c2cccc(C#N)c2)c(OC)c1 target_desc="U251 CNS" label=active
compound=COc1ccc(/C=C/c2nc(N3CCOCC3)c3nc(Cl)c(Cl)cc3n2)cc1OC target_desc="U251 CNS" label=inactive
compound=COc1ccc(Cl)cc1NC(N)=S target_desc="U251 CNS" label=inactive

====

system: U251 CNS; assay: NCI-60 one-dose screen, 48 h (100 = growth as untreated, 0 = no growth, -100 = all killed); details: 10 µM unless noted
This is part of a sample that, as a whole, favours compounds with a hit. Of some 83,000 tested, about 20% had one in any assay. Calls of active or inactive are those of the source. The calls were made as follows: active = growth percent below 10; inactive = the rest.
Recorded metric: growth

molecule="CCCCCCCCCN1C(=O)/C(=c2\\sc3n(c2=O)C2C(NN=3)N(CC)C(=O)N2CC)c2ccccc21 (stereo unspecified)" target_desc="U251 CNS" measured_result="25.1% (inactive)"
molecule=O=[N+]([O-])c1c(S(=O)(=O)O)cc2cc(S(=O)(=O)O)ccc2c1[N+](=O)[O-] target_desc="U251 CNS" measured_result="100% (inactive)"
molecule="CCN1C(=S)N(CC)C2Nn3c(s/c(=C4\\C(=O)N(C)c5ccccc54)c3=O)=NC21 (stereo unspecified)" target_desc="U251 CNS" measured_result="51.4% (inactive)"
molecule=Nc1ccccc1C#C/C=C\C#Cc1cccc(O)c1 target_desc="U251 CNS" measured_result="43% (inactive)"
molecule=Cc1oc2ncnc(Nc3ccccc3)c2c1C(=O)NCCO target_desc="U251 CNS" measured_result="102% (inactive)"
molecule="COc1cc(/C=C2\\CCCC3=C2N=C2SC(C)=NN2C3c2cc(OC)c(OC)c(OC)c2)cc(OC)c1OC (stereo unspecified)" target_desc="U251 CNS" measured_result="20.9% (inactive)"

====

tested on: SK-OV-3 ovarian; experiment: NCI-60 one-dose screen, 48 h (100 = growth as untreated, 0 = no growth, -100 = all killed); conditions: 10 µM unless noted
Compounds without any hit were thinned out: in the full panel of roughly 83,000, 20% have a hit.
Recorded metric: growth (%)

compound=CCn1cc(C(=O)O)c(=O)c2cc(F)c(N3CCN(S(=O)(=O)c4ccc(Cl)cc4Cl)CC3)cc21 target_desc="SK-OV-3 ovarian" recorded_metric=growth measured_result=1.7
compound=COc1ccc(/C=C(\C#N)c2ccc([N+](=O)[O-])cc2)c2ccccc12 target_desc="SK-OV-3 ovarian" recorded_metric=growth measured_result=5.28
compound=COc1cc(CCn2nnc3c(NCCCCO)ncnc32)cc(OC)c1 target_desc="SK-OV-3 ovarian" recorded_metric=growth measured_result=111
compound=Nc1c(C(=O)Nc2cccc(C(F)(F)F)c2)sc2nc3c(cc12)CCCCC3 target_desc="SK-OV-3 ovarian" recorded_metric=growth measured_result=-21.4
compound=CCN(Cc1ccc(CN(CC)C(=O)C(Br)Br)cc1)C(=O)C(Br)Br target_desc="SK-OV-3 ovarian" recorded_metric=growth measured_result=79.8
compound=O=C(CCCn1c(=O)c2sc3ccccc3c2n2nnc(-c3ccccc3)c12)NCCc1cnc[nH]1 target_desc="SK-OV-3 ovarian" recorded_metric=growth measured_result=75.3
compound=O=Nc1c(-c2c(O)[nH]c3ccc([N+](=O)[O-])cc23)[nH]c2ccc(O)cc12 target_desc="SK-OV-3 ovarian" recorded_metric=growth measured_result=-9.52
compound=CNC(C)=O target_desc="SK-OV-3 ovarian" recorded_metric=growth measured_result=102
compound=CC1=C(C#N)C(C)(C)C(C#N)=C(C)N1 target_desc="SK-OV-3 ovarian" recorded_metric=growth measured_result=110
compound=Cc1cc(Nc2nc(C(=O)Nc3ccccc3)nc3ccccc23)n[nH]1 target_desc="SK-OV-3 ovarian" recorded_metric=growth measured_result=39.3
compound="COc1cc(/C=C2\\CCCC3=C2N=C2SC(C)=NN2C3c2cc(OC)c(OC)c(OC)c2)cc(OC)c1OC (centres undefined)" target_desc="SK-OV-3 ovarian" recorded_metric=growth measured_result=60.3
compound=COc1ccc([N+](=O)[O-])c(/C=C/C(=O)c2ccccn2)c1 target_desc="SK-OV-3 ovarian" recorded_metric=growth measured_result=96
compound=COc1cc(OC)c(C(=O)/C=C/c2cccc(C(F)(F)F)c2)c(OC)c1 target_desc="SK-OV-3 ovarian" recorded_metric=growth measured_result=42.1
compound=Cc1nn(-c2ccc(Cl)cc2)c(=O)n1CCOc1ccccc1Cl target_desc="SK-OV-3 ovarian" recorded_metric=growth measured_result=92.9
compound=COc1ccc(/C=C/C(=O)c2ccc(NC(=O)CN3CCN(c4cc5c(cc4F)c(=O)c(C(=O)O)cn5C4CC4)CC3)cc2)cc1 target_desc="SK-OV-3 ovarian" recorded_metric=growth measured_result=114
compound=C=C1C(=O)O[C@H]2[C@H](O)[C@@H](C)CCC/C(C)=C/CC[C@@]3(C)O[C@@H]3C[C@@H]12 target_desc="SK-OV-3 ovarian" recorded_metric=growth measured_result=96.8
compound=CCCCCCCCCCCCNC(=S)N/N=C/c1ccc(Cl)c(Cl)c1 target_desc="SK-OV-3 ovarian" recorded_metric=growth measured_result=114
compound=CCN(CC)CCSc1c2ccc(Cl)cc2nc2ccc(OC)cc12 target_desc="SK-OV-3 ovarian" recorded_metric=growth measured_result=86.5
compound=OCc1c(-c2ccccc2)nc2sccn12 target_desc="SK-OV-3 ovarian" recorded_metric=growth measured_result=110
compound=NC(=S)NN=C1CCCCC1 target_desc="SK-OV-3 ovarian" recorded_metric=growth measured_result=73
compound="COC1=CC(c2ccc[nH]2)=N/C1=C\\c1[nH]c(C)c(C(=O)CCCCC(=O)Oc2ccc3c(c2)CCC2C3CC[C@]3(C)[C@@H](O)CC[C@@H]23)c1C (some centres undefined)" target_desc="SK-OV-3 ovarian" recorded_metric=growth measured_result=90
compound="CCCCOc1nc2c(C)cccc2cc1C1CNC(=O)c2ccccc2N1 (centres undefined)" target_desc="SK-OV-3 ovarian" recorded_metric=growth measured_result=69.2
compound="O=[N+]([O-])c1cc(S(=O)(=O)OCC2CO2)ccc1Cl (centres undefined)" target_desc="SK-OV-3 ovarian" recorded_metric=growth measured_result=104
compound="CCC(C)NCC(=O)O (centres undefined)" target_desc="SK-OV-3 ovarian" recorded_metric=growth measured_result=106
compound=Clc1nc(-c2cccnc2)nc2sc3c(c12)CCCCCC3 target_desc="SK-OV-3 ovarian" recorded_metric=growth measured_result=102
compound=COc1cc(NC(=O)CCl)ccc(=O)c1 target_desc="SK-OV-3 ovarian" recorded_metric=growth measured_result=73.9
compound="Cc1c(C2=NNC(c3ccc4c(c3)OCO4)C2)[n+]([O-])c2ccccc2[n+]1[O-] (centres undefined)" target_desc="SK-OV-3 ovarian" recorded_metric=growth measured_result=97.1
compound=O=C1N=C(c2c(-c3[nH]c(=O)c4ccc(Br)cc4c3O)c(O)c3ccccc3c2O)C(=O)c2cc(Br)ccc21 target_desc="SK-OV-3 ovarian" recorded_metric=growth measured_result=-32.6
compound=CC(C)(C)c1cc(-c2nc3ccc(N4CCN(CCO)CC4)cc3[nH]2)cc(C(C)(C)C)c1O target_desc="SK-OV-3 ovarian" recorded_metric=growth measured_result=84
compound=O=[N+]([O-])c1c(S(=O)(=O)O)cc2cc(S(=O)(=O)O)ccc2c1[N+](=O)[O-] target_desc="SK-OV-3 ovarian" recorded_metric=growth measured_result=122
compound=CC(=O)Nc1nc(C(=O)N2N=C(C)/C(=C/c3cccs3)C2=O)cs1 target_desc="SK-OV-3 ovarian" recorded_metric=growth measured_result=99.4
compound=CCC(=O)Oc1cc(/C=C/C(=O)O[C@H]2C[C@H]3CN4CCc5c([nH]c6cc(OC)ccc56)[C@@H]4C[C@@H]3[C@@H](C(=O)OC)[C@@H]2OC)ccc1OC target_desc="SK-OV-3 ovarian" recorded_metric=growth measured_result=86.5
compound=Cc1cc2c(C(C)C)c(O)c(O)c(C=NCCCCCCC(=O)O)c2c(O)c1-c1c(C)cc2c(C(C)C)c(O)c(O)c(C=NCCCCCCC(=O)O)c2c1O target_desc="SK-OV-3 ovarian" recorded_metric=growth measured_result=63.7
compound=CCn1cc(C(=O)O)c(=O)c2cc(F)c(N3CCN(S(=O)(=O)c4cccc5ccccc45)CC3)cc21 target_desc="SK-OV-3 ovarian" recorded_metric=growth measured_result=15.6
compound=O=C(CNc1ccc(Cl)cc1)Nc1ccc(-c2nc3ccccc3s2)cc1 target_desc="SK-OV-3 ovarian" recorded_metric=growth measured_result=89.7
compound=O=C(/C=C/c1ccccc1)n1c(-c2ccc(Cl)cc2)nc2ccccc21 target_desc="SK-OV-3 ovarian" recorded_metric=growth measured_result=24
compound=O=C1OC(c2ccccc2)=N/C1=C\c1ccc([N+](=O)[O-])cc1 target_desc="SK-OV-3 ovarian" recorded_metric=growth measured_result=109
compound=COc1cc(/C=C/C(=O)c2ccc(NC(=O)CN3CCN(c4cc5c(cc4F)c(=O)c(C(=O)O)cn5C4CC4)CC3)cc2)cc(OC)c1OC target_desc="SK-OV-3 ovarian" recorded_metric=growth measured_result=33.3
compound="COc1cccc(C2CC(=O)Nc3c2c(C)nn3-c2nc3ccccc3[nH]2)c1OC (centres undefined)" target_desc="SK-OV-3 ovarian" recorded_metric=growth measured_result=79.9
